TESTED ON: 14C-HIgG (human)
EXPERIMENT DESCRIPTION: second round of secondary screening, batch, competitive (MEM), 14C counting
No end group written: not given here.
Classification scheme (Bound): low: < 10%; moderate: ≥ 10% and < 20%; high: ≥ 20%

1. KRGFYYA-{Toyopearl AF‑Amino‑650 resin}    moderate
2. HYIDAKA-{Toyopearl AF‑Amino‑650 resin}    low
3. HYFKFDA-{Toyopearl AF‑Amino‑650 resin}    high
4. HFRRHLA-{Toyopearl AF‑Amino‑650 resin}    high
5. HVWQLKA-{Toyopearl AF‑Amino‑650 resin}    moderate
6. HDVFHTA-{Toyopearl AF‑Amino‑650 resin}    low
7. HPWYVTA-{Toyopearl AF‑Amino‑650 resin}    high
8. KLQWVHA-{Toyopearl AF‑Amino‑650 resin}    moderate
9. HLKWYAA-{Toyopearl AF‑Amino‑650 resin}    high
10. HVHYYWA-{Toyopearl AF‑Amino‑650 resin}    high
11. HIWA-{Toyopearl AF‑Amino‑650 resin}    moderate
12. KGEA-{Toyopearl AF‑Amino‑650 resin}    low
